Where do these numbers come from? They come from ChEMBL document CHEMBL1130397.

Target: Cytosolic phospholipase A2 (Bos taurus)
Sequence (A4IFJ5 whole entry): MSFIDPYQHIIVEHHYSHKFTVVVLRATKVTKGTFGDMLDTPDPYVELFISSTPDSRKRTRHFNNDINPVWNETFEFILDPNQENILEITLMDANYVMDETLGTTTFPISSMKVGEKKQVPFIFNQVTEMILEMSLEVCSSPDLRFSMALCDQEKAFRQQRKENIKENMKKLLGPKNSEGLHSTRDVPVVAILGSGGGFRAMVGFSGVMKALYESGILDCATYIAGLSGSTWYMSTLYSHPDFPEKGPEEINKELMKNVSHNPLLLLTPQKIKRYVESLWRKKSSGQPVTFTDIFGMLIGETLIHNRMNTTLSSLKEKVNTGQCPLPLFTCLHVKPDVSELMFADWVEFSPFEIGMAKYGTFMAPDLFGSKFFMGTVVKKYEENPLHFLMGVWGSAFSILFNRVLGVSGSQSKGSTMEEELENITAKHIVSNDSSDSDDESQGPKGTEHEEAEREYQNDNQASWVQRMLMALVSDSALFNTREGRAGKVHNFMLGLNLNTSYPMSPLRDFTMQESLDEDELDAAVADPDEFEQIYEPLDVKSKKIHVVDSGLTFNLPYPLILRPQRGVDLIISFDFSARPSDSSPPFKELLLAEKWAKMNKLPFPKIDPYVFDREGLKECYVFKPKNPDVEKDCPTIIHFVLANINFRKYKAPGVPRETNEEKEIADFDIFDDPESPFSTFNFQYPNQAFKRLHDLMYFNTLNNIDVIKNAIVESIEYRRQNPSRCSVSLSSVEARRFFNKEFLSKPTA
Assay: Inhibition of cPLA2 measuring Calcium ionophore A-23,187-induced arachidonic acid release from bovine platelets with HPLC/UV detection
Type: functional
Experimental Endpoint: IC50 (µM)

The compound listed as CCCCCCCCCCCC(=O)c1c(C)c(CCC(=O)O)n(CCC(=O)O)c1C has a reported IC50 of 8

The compound listed as CCCCCCCCCCCC(=O)c1c(C)c(CCC(=O)O)n(CCCCCC(=O)O)c1C has a reported IC50 of 3.4

The compound listed as CCCCCCCCCCCC(=O)c1c(C)c(CCC(=O)O)n(C)c1C has a reported IC50 of 13

The compound listed as CCCCCCCCCCCC(=O)c1c(C)c(CCC(=O)O)n(CCCCCCCC(=O)O)c1C has a reported IC50 of 3.6

The compound listed as CCCCCCCCCCCC(=O)c1c(C)c(CCC(=O)O)n(CCCCC(=O)O)c1C has a reported IC50 of 3.9

A = CCCCCCCCCCCC(=O)c1c(C)c(CC(=O)O)n(C)c1C
B = CCCCCCCCCCCC(=O)c1c(C)c(CC(=O)O)n(CCCCCCCCC(=O)O)c1C
C = CCCCCCCCCCCC(=O)c1c(C)c(CC(=O)O)n(CCCCCCC(=O)O)c1C
QUERY: Put these in order: smallest IC50 first, largest last. List the labels, following the order given in the request.
RESULT: B, C, A

a = CCCCCCCCCCCC(=O)c1c(C)c(CC(=O)O)n(CCCCCCCC(=O)O)c1C
b = CCCCCCCCCCCC(=O)c1c(C)c(CC(=O)O)n(CCCCCC(=O)O)c1C
QUERY: Please indicate which item has the smaller measured IC50: a versus b Respond with the label that goes with your answer.
RESULT: a
